ASSAYED_TARGET: NLRP3 inflammasome (Homo sapiens)
Construct: endogenous in cells
EXPERIMENTAL_PROTOCOL: IL-1β secretion assay (NLRP3 IC50) in LPS-primed, nigericin-activated THP-1 cells, HTRF
STATED_CONDITIONS: monocytic THP-1 cells; LPS 10 ng/mL 3 h priming, then compound + nigericin 10 μM 2 h; relative IC50, 10 concentrations, geometric mean
REPORTED_METRIC: IC50

Solved cases (5 shown):
COMPOUND	MEASURED_VALUE
Cc1cccc(O)c1-c1ccc(N2CC[C@@H]3CCN(C)C[C@@H]32)nn1 (racemic) [Example 385]	2 nM
Oc1cc(Cl)ccc1-c1ccc(N2CCO[C@@H]3CCN(CCF)C[C@@H]32)nn1	631 nM
Oc1cc(Cl)cc(Cl)c1-c1ccc(N2CCC3(CC2)COC3)nn1	304 nM
Cc1cc(C(F)(F)F)cc(O)c1-c1ccc(N2CCOC(CN(C)C)C2)nn1 (single isomer, unassigned) [Example 60]	386 nM
Cc1cc(C)c(-c2ccc(N3CCCc4cccc(O)c43)nn2)c(O)c1	219 nM

Could you share which IC50 value was measured for Cc1cc(C(F)(F)F)cc(O)c1-c1ccc(N2CCO[C@@H]3CCNC[C@@H]32)nn1 (single isomer, unassigned) ?
461 nM

Note, next up: `Cc1cc(C)c(-c2ccc(N3CCO[C@H](CO)C3)nn2)c(O)c1`
20 nM

Note, next up: CCN1CC[C@H]2CCN(c3ccc(-c4c(C)cc(C)cc4O)nn3)[C@H]2C1 (single isomer, unassigned)
1080 nM

Note, next up: `Cc1ccc(-c2ccc(N3CCO[C@H](CO)C3)nn2)c(O)c1`
2200 nM

====

Recorded IC50 by entry
ASSAYED_TARGET: NLRP3 inflammasome (Homo sapiens)
Construct: endogenous in cells
EXPERIMENTAL_PROTOCOL: IL-1β secretion assay (NLRP3 IC50) in LPS-primed, nigericin-activated THP-1 cells, HTRF
STATED_CONDITIONS: monocytic THP-1 cells; LPS 10 ng/mL 3 h priming, then compound + nigericin 10 μM 2 h; relative IC50, 10 concentrations, geometric mean
Write the number in nM without appending the unit.

Solved cases (2 shown):
COMPOUND	MEASURED_VALUE
Oc1cc(Cl)cc(Cl)c1-c1ccc(N2CCO[C@H](CF)C2)nn1 (single isomer, unassigned)	47
CN1CC2(CCN(c3ccc(-c4c(O)cc(Cl)cc4Cl)nn3)CC2)C1	176

Okay, now this compound:
Could you share which IC50 value was measured for CC(=O)N1CC[C@@H]2CCN(c3nnc(-c4c(C)cc(C)cc4O)cc3C(F)F)[C@@H]2C1 (single isomer, unassigned) ?
276

====

ASSAYED_TARGET: NLRP3 inflammasome (Homo sapiens)
Construct: endogenous in cells; host or cells: THP-1 monocytic cells
EXPERIMENTAL_PROTOCOL: IL-1β secretion assay (NLRP3 IC50) in LPS-primed, nigericin-activated THP-1 cells, HTRF
Assay type: cell-based
STATED_CONDITIONS: monocytic THP-1 cells; LPS 10 ng/mL 3 h priming, then compound + nigericin 10 μM 2 h; relative IC50, 10 concentrations, geometric mean
Recorded IC50 by entry
Write the number in nM without appending the unit.

Solved cases (5 shown):
COMPOUND	ASSAYED_TARGET	IC50 (nM)
CN(C)C[C@H]1CCN(c2ccc(-c3c(O)cc(Cl)cc3Cl)nn2)C1	NLRP3 inflammasome (Homo sapiens)	252
Oc1cc(Cl)cc(Cl)c1-c1ccc(N2CC3(CC(O)C3)C2)nn1	NLRP3 inflammasome (Homo sapiens)	389
Cc1cc(C)c(-c2ccc(N3CCO[C@@H](CCO)C3)nn2)c(O)c1 (single isomer, unassigned)	NLRP3 inflammasome (Homo sapiens)	355
Cc1cc(C(F)(F)F)cc(O)c1-c1ccc(N2CCO[C@H](CC#N)C2)nn1 (single isomer, unassigned)	NLRP3 inflammasome (Homo sapiens)	292
NCC1CCN(c2ccc(-c3c(O)cc(Cl)cc3Cl)nn2)CC1	NLRP3 inflammasome (Homo sapiens)	1480

Could you share which IC50 value was measured for `COC[C@H]1CCCN1c1ccc(-c2c(C)cc(C(F)(F)F)cc2O)nn1` ?
605

Note, next up: `CC(=O)N1CCC[C@H]2[C@@H]1CCCN2c1ccc(-c2c(C)cc(C(F)(F)F)cc2O)nn1`
3780

====

Recorded pIC50 by entry
ASSAYED_TARGET: NLRP3 inflammasome (Homo sapiens, UniProt Q96P20)
Construct: endogenous in cells
Sequence (Q96P20 whole entry): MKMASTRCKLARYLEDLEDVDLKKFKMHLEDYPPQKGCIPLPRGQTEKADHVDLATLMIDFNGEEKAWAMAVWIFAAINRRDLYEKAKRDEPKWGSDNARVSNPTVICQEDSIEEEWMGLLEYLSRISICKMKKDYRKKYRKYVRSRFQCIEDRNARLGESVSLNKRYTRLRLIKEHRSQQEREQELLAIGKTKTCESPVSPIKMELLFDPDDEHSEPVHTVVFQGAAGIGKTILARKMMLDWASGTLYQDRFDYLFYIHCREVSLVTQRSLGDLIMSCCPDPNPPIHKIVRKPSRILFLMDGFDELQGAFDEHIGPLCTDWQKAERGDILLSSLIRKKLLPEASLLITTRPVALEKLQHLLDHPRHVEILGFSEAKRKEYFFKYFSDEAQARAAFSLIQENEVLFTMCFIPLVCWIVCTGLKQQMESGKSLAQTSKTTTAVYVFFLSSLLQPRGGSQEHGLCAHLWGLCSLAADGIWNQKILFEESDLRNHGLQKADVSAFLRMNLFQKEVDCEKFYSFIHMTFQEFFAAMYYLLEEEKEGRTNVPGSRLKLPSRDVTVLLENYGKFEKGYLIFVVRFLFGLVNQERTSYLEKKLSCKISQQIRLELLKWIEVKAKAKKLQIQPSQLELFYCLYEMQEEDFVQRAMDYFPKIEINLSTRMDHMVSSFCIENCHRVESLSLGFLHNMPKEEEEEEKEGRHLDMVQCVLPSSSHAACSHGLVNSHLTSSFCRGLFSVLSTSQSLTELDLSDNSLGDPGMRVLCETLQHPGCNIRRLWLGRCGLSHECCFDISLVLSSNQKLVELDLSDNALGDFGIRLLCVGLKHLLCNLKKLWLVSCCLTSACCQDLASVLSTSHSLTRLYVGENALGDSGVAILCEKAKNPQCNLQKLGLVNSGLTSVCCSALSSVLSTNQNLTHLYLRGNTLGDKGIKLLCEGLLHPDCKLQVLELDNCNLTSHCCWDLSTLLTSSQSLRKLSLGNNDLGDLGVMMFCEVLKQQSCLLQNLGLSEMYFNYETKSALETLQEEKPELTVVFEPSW
EXPERIMENTAL_PROTOCOL: IL-1β secretion assay (NLRP3 IC50) in LPS-primed, nigericin-activated THP-1 cells, HTRF
STATED_CONDITIONS: monocytic THP-1 cells; LPS 10 ng/mL 3 h priming, then compound + nigericin 10 μM 2 h; relative IC50, 10 concentrations, geometric mean
A value of pIC50 is the negative decimal logarithm of a concentration given in moles per litre.

Solved cases (5 shown):
MOLECULE	pIC50
CCN1CC[C@H]2CCN(c3ccc(-c4c(C)cc(Cl)cc4O)nn3)[C@H]2C1 (single isomer, unassigned) [Example 496]	6.26
Cc1cc(C)c(-c2ccc(N3CCO[C@H](CC(N)=O)C3)nn2)c(O)c1 (single isomer, unassigned) [Example 146]	6.62
Cc1cc(C)c(-c2ccc(N3CC4(CCN4C)C3)nn2)c(O)c1 [Example 91]	5.31
CCc1cc(C)cc(O)c1-c1ccc(N2CC[C@H]3CCN(C)C[C@H]32)nn1 (single isomer, unassigned) [Example 476]	6.68
Cc1cc(C)c(-c2ccc(N3CCO[C@@H](CC(N)=O)C3)nn2)c(O)c1 (single isomer, unassigned) [Example 147]	6.24

Could you share which pIC50 value was measured for Cc1cc(Cl)cc(O)c1-c1nnc(N2CCO[C@H](CO)C2)cc1C(F)F [Example 249] ?
6.82

Note, next up: CCc1cccc(O)c1-c1ccc(N2CC[C@@H]3CCN(C)C[C@@H]32)nn1 (racemic) [Example 388]
9.00

Note, next up: Cc1cc(C)c(-c2ccc(N3C[C@@H](CO)O[C@H](CO)C3)nn2)c(O)c1 [Example 198]
7.80

Note, next up: Cc1cc(C)c(-c2ccc(N3CC(=O)N[C@@H](CO)C3)nn2)c(O)c1 (single isomer, unassigned) [Example 329]
6.15

Note, next up: Oc1cc(Cl)cc(Cl)c1-c1ccc(N2CCC3(CC2)CC(O)C3)nn1 [Example 37]
6.05

Note, next up: Cc1cc(C)c(-c2cc(CO)c(N3CCO[C@H](CO)C3)nn2)c(O)c1 [Example 187]
7.18

Note, next up: CCc1cc(N2CCO[C@@H]3CCN(C)C[C@@H]32)nnc1-c1ccc(C)cc1O [Example 470]
9.42

Note, next up: O=S1(=O)CCN(c2ccc(-c3c(O)cc(Cl)cc3Cl)nn2)CC1 [Example 399]
6.25

Note, next up: Cc1cc(Cl)cc(O)c1-c1ccc(N2CCO[C@H](CF)C2)nn1 [Example 339]
6.88

Note, next up: Cc1cc(C)c(-c2ccc(N3CCO[C@H]4CN(C5CCC5)CC[C@H]43)nn2)c(O)c1 (racemic) [Example 4]
6.60

====

ASSAYED_TARGET: NLRP3 inflammasome (Homo sapiens, UniProt Q96P20)
Construct: endogenous in cells
EXPERIMENTAL_PROTOCOL: IL-1β secretion assay (NLRP3 IC50) in LPS-primed, nigericin-activated THP-1 cells, HTRF
STATED_CONDITIONS: monocytic THP-1 cells; LPS 10 ng/mL 3 h priming, then compound + nigericin 10 μM 2 h; relative IC50, 10 concentrations, geometric mean
Recorded pIC50 by entry
A value of pIC50 is the negative decimal logarithm of a concentration given in moles per litre.

Solved cases (3 shown):
MOLECULE	ASSAYED_TARGET	REPORTED_METRIC	MEASURED_VALUE
CCN1CC[C@@H]2OCCN(c3ccc(-c4c(C)cc(C(F)(F)F)cc4O)nn3)[C@@H]2C1 (single isomer, unassigned) [Example 255]	NLRP3 inflammasome (Homo sapiens, UniProt Q96P20)	pIC50	6.60
CCN1CC[C@H]2OCCN(c3cc(C(F)F)c(-c4ccc(C)cc4O)nn3)[C@H]2C1	NLRP3 inflammasome (Homo sapiens, UniProt Q96P20)	pIC50	8.52
Cc1cc(C)c(-c2ccc(N3CCO[C@@H]4C[C@@H](O)C[C@@H]43)nn2)c(O)c1 (single isomer, unassigned)	NLRP3 inflammasome (Homo sapiens, UniProt Q96P20)	pIC50	7.00

Could you share which pIC50 value was measured for `Cc1cc(N2CCO[C@H](CO)C2)nnc1-c1ccc(Cl)cc1O` ?
7.48

====

Recorded IC50 by entry
ASSAYED_TARGET: NLRP3 inflammasome (Homo sapiens)
Construct: endogenous in cells
EXPERIMENTAL_PROTOCOL: IL-1β secretion assay (NLRP3 IC50) in LPS-primed, nigericin-activated THP-1 cells, HTRF
STATED_CONDITIONS: monocytic THP-1 cells; LPS 10 ng/mL 3 h priming, then compound + nigericin 10 μM 2 h; relative IC50, 10 concentrations, geometric mean
Write the number in µM without appending the unit.

Solved cases (2 shown):
COMPOUND	REPORTED_METRIC	MEASURED_VALUE
Cc1cc(N2CCO[C@H](CO)C2)nnc1-c1ccc2c(c1O)CCC2	IC50	0.056
Cc1cc(C)c(-c2ccc(N3CCC[C@@H]4CCN(C)C(=O)[C@@H]43)nn2)c(O)c1 (racemic)	IC50	0.145

Could you share which IC50 value was measured for `Cc1cc(C)c(-c2ccc(N3CCO[C@@H]4CCN(C(C)C)C[C@@H]43)nn2)c(O)c1` ?
0.002

Note, next up: Cc1cc(C)c(-c2ccc(N3CCO[C@@H]4COCC[C@H]43)nn2)c(O)c1 (racemic)
0.344
